Target: UniProt P31213
Sequence (P31213 whole entry): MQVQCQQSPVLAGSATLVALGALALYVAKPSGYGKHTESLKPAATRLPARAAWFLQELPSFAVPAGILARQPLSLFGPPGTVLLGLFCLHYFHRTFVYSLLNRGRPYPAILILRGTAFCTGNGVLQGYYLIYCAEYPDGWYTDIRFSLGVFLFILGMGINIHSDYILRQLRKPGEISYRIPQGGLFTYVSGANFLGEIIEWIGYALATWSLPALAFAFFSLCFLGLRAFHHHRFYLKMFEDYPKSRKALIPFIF
Test: Inhibition of 5alpha-reductase2 (unknown origin)
Calls of active or inactive are those of the source. No cut-off for these calls is given here.
METRIC: inhibition

C[C@]12CC[C@H](OC(=O)c3ccc(Br)cc3)CC1=CC[C@@H]1[C@@H]2CC[C@]2(C)C(n3cnc4ccccc43)=C(C=O)C[C@@H]12 : inactive
C[C@]12CC[C@H](OC(=O)c3ccc(F)cc3)CC1=CC[C@@H]1[C@@H]2CC[C@]2(C)C(n3cnc4ccccc43)=C(C=O)C[C@@H]12 : inactive
C[C@]12CC[C@H](OC(=O)c3ccccc3)CC1=CC[C@@H]1[C@@H]2CC[C@]2(C)C(n3cnc4ccccc43)=C(C=O)C[C@@H]12 : inactive

---

Listing of entries alongside the reported IC50.
Biological target: 3-oxo-5-alpha-steroid 4-dehydrogenase 1 (Rattus norvegicus)
Sequence (P24008 whole entry): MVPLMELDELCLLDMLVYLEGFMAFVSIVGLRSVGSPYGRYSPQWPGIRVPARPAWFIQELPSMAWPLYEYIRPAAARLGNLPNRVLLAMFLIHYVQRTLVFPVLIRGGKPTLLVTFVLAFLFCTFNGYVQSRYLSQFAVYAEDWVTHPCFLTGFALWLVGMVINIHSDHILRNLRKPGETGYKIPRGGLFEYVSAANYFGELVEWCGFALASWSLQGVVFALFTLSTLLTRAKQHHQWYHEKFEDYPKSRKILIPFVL
Assay: Inhibition of rat liver microsomes 5alpha-reductase1 using [1,2,6,7-3H]T as substrate measured after 60 mins by chromatographic method
Conditions: read-out: IC50
Write down the numeric answer in µM and omit the unit.

C[C@]12CC[C@H](OC(=O)c3ccc(Cl)cc3)CC1=CC[C@@H]1[C@@H]2CC[C@]2(C)C(n3cnc4ccccc43)=C(C=O)C[C@@H]12 : 83

### Prompt Look up IC50 for this compound: C[C@]12CC[C@H](OC(=O)c3ccc(F)cc3)CC1=CC[C@@H]1[C@@H]2CC[C@]2(C)C(n3cnc4ccccc43)=C(C=O)C[C@@H]12
### Response 40

### Prompt Look up IC50 for this compound: C[C@]12CC[C@H](O)CC1=CC[C@@H]1[C@@H]2CC[C@]2(C)C(n3cnc4ccccc43)=C(C=O)C[C@@H]12
### Response 0.291

---

Experiment: Stability of the compound in water
Format: physicochemical
Settings: buffer
METRIC: Stability

Answered examples (5):
Cc1ccc(C(=O)O[C@H]2CC[C@@]3(C)C(=CC[C@@H]4[C@@H]3CC[C@]3(C)C(n5cnc6ccccc65)=C(C=O)C[C@@H]43)C2)cc1 : Stable
C[C@]12CC[C@H](OC(=O)c3ccc(Br)cc3)CC1=CC[C@@H]1[C@@H]2CC[C@]2(C)C(n3cnc4ccccc43)=C(C=O)C[C@@H]12 : Stable
C[C@]12CC[C@H](OC(=O)c3ccc(I)cc3)CC1=CC[C@@H]1[C@@H]2CC[C@]2(C)C(n3cnc4ccccc43)=C(C=O)C[C@@H]12 : Stable
C[C@]12CC[C@H](OC(=O)c3ccc(F)cc3)CC1=CC[C@@H]1[C@@H]2CC[C@]2(C)C(n3cnc4ccccc43)=C(C=O)C[C@@H]12 : Unstable
C[C@]12CC[C@H](OC(=O)c3ccccc3)CC1=CC[C@@H]1[C@@H]2CC[C@]2(C)C(n3cnc4ccccc43)=C(C=O)C[C@@H]12 : Stable

### Prompt Look up Stability for this compound: C[C@]12CC[C@H](OC(=O)c3ccc(Cl)cc3)CC1=CC[C@@H]1[C@@H]2CC[C@]2(C)C(n3cnc4ccccc43)=C(C=O)C[C@@H]12
### Response Unstable

Hey, just so you know, these numbers are from ChEMBL document CHEMBL4229445.
